tested on: HCC-2998 colon; assay: NCI tumour cell line growth inhibition, 48 h
quantity: GI50

Value (GI50, HCC-2998 colon) for record C=C1C(=O)O[C@H]2[C@H]1CC/C(CNC(=O)c1cccc3ccccc13)=C\CC[C@@]1(C)O[C@@H]21 = 2.43 µM

Value (GI50, HCC-2998 colon) for record COc1ccc2c(c1)oc1c(C)c3c(c(C)c12)C(=O)N(N)C3=O = > 100 µM

Value (GI50, HCC-2998 colon) for record CC(=O)[CH-]C(=O)c1ccccc1.CC(=O)[CH-]C(=O)c1ccccc1.CCN(CC)CC[O-].CCN(CC)CC[O-].Cl.[Hf+4] = > 100 µM

Value (GI50, HCC-2998 colon) for record COc1ccc(-c2c(-c3cc(OC)c(OC)c(OC)c3)nc3sc(C4CC4)nn23)cc1OC = 12.3 µM

Value (GI50, HCC-2998 colon) for record CNC(=O)C(CCc1ccccc1)NC(=O)C(CC(=O)NO)CC(C)C (stereo not given) = > 25 µM

Value (GI50, HCC-2998 colon) for record C=CCn1c(SCC(=O)Nc2ccc(C(=O)/C=C/c3cc(OC)c(OC)c(OC)c3)cc2)nnc1-c1ccc(Cl)cc1 = 2.36 µM

Value (GI50, HCC-2998 colon) for record CN(C)c1ccc(Nc2ncnc3ccccc23)cc1 = > 100 µM

Value (GI50, HCC-2998 colon) for record COc1ccc(-c2nnc(COc3ccc(Cl)cc3Cl)o2)cc1OC = > 100 µM

Value (GI50, HCC-2998 colon) for record CCOC(=O)c1ccc2c(c1)[n+](=O)c(C(=O)C1CCCS1)c(C(F)(F)F)n2[O-] (stereo not given) = 0.675 µM

Value (GI50, HCC-2998 colon) for record C[CH2][Sn]([CH2]C)([O]C(=O)c1cccc(OC)c1)[O][Sn]([CH2]C)([CH2]C)[O]C(=O)c1cccc(OC)c1 = > 76 µM

###

tested on: UACC-257 melanoma; assay: NCI tumour cell line growth inhibition, 48 h
quantity: TGI

TGI for CC1NS(=O)(=O)N(C)C1=O (stereo unspecified) is > 100 µM

TGI for O=C(Nc1cccc(-n2ccc3c(NC(=O)c4ccccc4)nccc32)c1)Nc1ccc(Cl)c(C(F)(F)F)c1 is 20.9 µM

TGI for CN(C)CCN=C1c2ccccc2-c2c(=O)n(CCN(C)C)c(O)c3cccc1c23 is 1.25 µM

TGI for CCOC(=O)c1ccc2c(c1)[n+](=O)c(C(=O)C1CCCS1)c(C(F)(F)F)n2[O-] (stereo unspecified) is 1.6 µM

TGI for c1ccc(NNC2=NCCN2)cc1 is > 100 µM

TGI for O=C1NN=C2C=C(c3ccc(Cl)cc3)CC(c3cccc(Br)c3)C12 (stereo unspecified) is 67 µM

TGI for CCCc1nc(N)nc(C(=O)Nc2cccc(C(F)(F)F)c2)c1CC is > 100 µM

TGI for c1cc(-c2ccc(-c3ccc(C4=NCCCN4)cc3)o2)ccc1C1=NCCCN1 is > 100 µM

TGI for COC(=O)C1C(O)C(C)C(=O)C(C)/C=C\C=C(C)C(=O)Nc2c(C)c(OC(C)=O)c3c(c2O)C(=O)C(C)=C2OCOC(=C23)C(C)=CC(C)(O)C(O)C(C)C1O (stereo unspecified) is 32.9 µM

TGI for COC(=O)Cc1cccc2c1CCC2=O is > 100 µM

TGI for N#C/C(=C\c1cn(Cc2ccccc2)c2ccccc12)C(=O)Nc1ncc(Cc2ccccc2Cl)s1 is > 100 µM

TGI for COc1ccc(Nc2nn3c(=O)c4c(C)c(C)sc4nc3s2)cc1 is > 100 µM

TGI for Cn1c2c([N+](=O)[O-])cccc2c(=O)c2c(O)cc3c(c21)C=CC(C)(C)O3 is > 100 µM

TGI for CN(NC(=O)/C(=C/c1ccc(Cl)cc1)NC(=O)c1ccccc1)c1cn[nH]c(=O)c1Cl is > 100 µM

TGI for C/C(=N\NC(=S)Nc1ccccc1)c1nc2ncccc2[nH]1 is 11.1 µM

TGI for COC(=O)[C@](NC(=O)OCc1ccccc1)([C@@H](C)S(=O)c1ccc(C)cc1)C(F)(F)F (stereo partly specified) is 86.6 µM

TGI for N#Cc1c(-c2ccc([N+](=O)[O-])cc2)cc(-c2ccc(Nc3ccnc4cc(C(F)(F)F)ccc34)cc2)[nH]c1=O is > 100 µM

TGI for Nc1n[n+](=O)c2ccccc2n1O is > 100 µM

TGI for Cc1c(NC(=O)/C(=N/NC(=S)N=N)C2C(=O)CC(C)(C)CC2=O)c(O)c2ccccc2c1O is 14 µM

TGI for O=C1c2scc(-c3ccccc3)c2-n2cccc21 is > 100 µM

TGI for COc1ccc2c(c1)C1C(CO2)C(c2ccccc2)=NN1c1ccccc1 (stereo unspecified) is > 100 µM
